Source listed as ChEMBL document CHEMBL2218924.

# tested-target: Death-associated protein kinase 3 (Homo sapiens)
# condition-set: at 1 µM
Output Yes for records whose residual activity is lower than 90%, No for records at or above 90%.

(Q) Given the entry COc1ccc(C(=O)Nc2sc3c(c2C(N)=O)CCCC3)cc1OC , would its reported residual activity be below 90%?
(A) Yes

(Q) Below 90% on residual activity? Entry CO[C@H]1[C@@H](OC)C[C@H](C)[C@@H](OC)C2=CC(=O)C=C(NC(=O)/C(C)=C/C=C/[C@H](OC)[C@@H](OC(N)=O)/C(C)=C/[C@@H]1C)C2=O
(A) No

(Q) is_below(residual activity, 90%) for Oc1n[nH]c2nnc(-c3c(-c4ccccc4)nn4ccccc34)cc12 ?
(A) Yes

----------
Assign residual activity to each entry below.
# tested-target: Insulin receptor (Homo sapiens) (UniProt P06213)
# Sequence (P06213 28-758 limits assumed): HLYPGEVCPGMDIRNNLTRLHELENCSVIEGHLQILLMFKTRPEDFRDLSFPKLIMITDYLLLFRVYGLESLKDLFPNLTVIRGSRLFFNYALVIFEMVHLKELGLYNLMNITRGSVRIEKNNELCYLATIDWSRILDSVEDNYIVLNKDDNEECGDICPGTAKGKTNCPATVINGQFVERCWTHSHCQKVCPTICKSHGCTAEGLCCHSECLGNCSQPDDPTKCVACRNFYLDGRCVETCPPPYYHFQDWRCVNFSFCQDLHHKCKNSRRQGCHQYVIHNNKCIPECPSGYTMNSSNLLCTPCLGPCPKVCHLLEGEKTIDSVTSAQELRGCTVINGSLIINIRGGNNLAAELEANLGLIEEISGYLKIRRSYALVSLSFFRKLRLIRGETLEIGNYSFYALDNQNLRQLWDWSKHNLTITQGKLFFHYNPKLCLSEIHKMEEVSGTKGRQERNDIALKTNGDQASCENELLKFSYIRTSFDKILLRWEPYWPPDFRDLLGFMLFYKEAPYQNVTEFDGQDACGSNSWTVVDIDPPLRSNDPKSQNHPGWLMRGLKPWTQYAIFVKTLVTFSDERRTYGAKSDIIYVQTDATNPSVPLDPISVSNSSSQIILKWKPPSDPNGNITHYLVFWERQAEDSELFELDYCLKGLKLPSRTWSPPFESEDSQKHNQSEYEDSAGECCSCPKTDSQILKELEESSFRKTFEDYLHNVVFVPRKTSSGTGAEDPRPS
# Sequence (P06213 763-1382 limits assumed): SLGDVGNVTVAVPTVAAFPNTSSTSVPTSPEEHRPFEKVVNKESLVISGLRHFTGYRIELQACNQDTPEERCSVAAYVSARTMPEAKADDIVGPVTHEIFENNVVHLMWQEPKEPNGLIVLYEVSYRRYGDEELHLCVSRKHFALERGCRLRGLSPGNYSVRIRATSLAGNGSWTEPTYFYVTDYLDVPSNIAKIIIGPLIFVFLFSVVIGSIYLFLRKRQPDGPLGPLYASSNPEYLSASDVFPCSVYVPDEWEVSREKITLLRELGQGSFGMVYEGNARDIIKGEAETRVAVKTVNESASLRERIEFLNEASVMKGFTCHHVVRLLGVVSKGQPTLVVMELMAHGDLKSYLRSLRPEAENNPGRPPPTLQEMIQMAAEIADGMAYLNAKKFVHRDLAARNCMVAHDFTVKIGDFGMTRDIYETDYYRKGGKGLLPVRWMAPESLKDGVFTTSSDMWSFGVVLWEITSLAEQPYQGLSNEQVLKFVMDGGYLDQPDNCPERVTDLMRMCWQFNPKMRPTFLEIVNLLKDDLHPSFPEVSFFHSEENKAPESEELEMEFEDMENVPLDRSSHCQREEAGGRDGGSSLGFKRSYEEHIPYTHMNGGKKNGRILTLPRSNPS
# condition-set: at 10 µM
Give bare numbers, in %.

Answered examples (3):
N#C/C(=C(\N)Sc1ccc(N)cc1)c1ccccc1C(F)(F)F	92
Cn1cc(/C=C2\C(=O)Nc3ccc(S(N)(=O)=O)cc32)c2ccccc21	64
C[C@@H](N)[C@H]1CC[C@H](C(=O)Nc2ccncc2)CC1	97

Report residual activity for every entry below.
1. N#CCCc1ccc2c(c1)-c1[nH]c3ccc([N+](=O)[O-])cc3c1CC(=O)N2
2. N#CC(C#N)=C(N)/C(C#N)=C/c1ccc(O)cc1
3. CC(C)n1cnc2c(NCc3ccccc3)nc(NCCCO)nc21
4. CC[n+]1c(/C=C/N(C)c2ccccc2)n(-c2ccccc2)c2ccc(-c3nc4ccccc4s3)cc21
5. CCOc1cc2ncnc(Nc3cccc(Br)c3)c2cc1OCC
6. CN(C)c1ccc(/C=C2\C(=O)Nc3ccccc32)cc1
7. O=C(Nc1cccc(Nc2cc(Nc3cccc(C(F)(F)F)c3)ncn2)c1)C1CC1
8. O=C1NC(=O)c2c1c1c3ccccc3[nH]c1c1[nH]c3cc(Br)ccc3c21

(A)
1: 76; 2: 93; 3: 75; 4: 92; 5: 92; 6: 71; 7: 106; 8: 95

For each of the compounds below, state residual activity.
1. Cc1cc(Nc2nc(-c3ccccc3)nc3ccccc23)n[nH]1
2. CCN(CC)CCCCN1c2ccccc2Oc2ccc(Cl)cc21
3. Cc1ccc(NC2=CC(=O)c3sc(C)nc3C2=O)cc1
4. O=c1c2ccccc2[nH]c(=S)n1CCN1CCC(=C(c2ccc(F)cc2)c2ccc(F)cc2)CC1
5. COc1ccc(OC)c2c(=S)c3ccccc3[nH]c12
6. O=C1NC(=O)/C(=C/c2ccc3c(c2)OC(F)(F)O3)S1
7. Nc1cccc(-c2cc3c(Oc4cccc(O)c4)ncnc3[nH]2)c1

(A)
1: 7; 2: 104; 3: 96; 4: 101; 5: 89; 6: 98; 7: 78

Hi team, please reply with residual activity for each item in this list.
1. O=Nc1c(-c2c(O)[nH]c3ccccc23)[nH]c2ccccc12
2. O=C(O)c1ccc2c3c1cccc3c(=O)n1c3ccccc3nc21
3. Cc1nc2cc3nc(-c4cccs4)cnc3cc2n1C
4. CO[C@H]1C[C@@H]2CC[C@@H](C)[C@@](O)(O2)C(=O)C(=O)N2CCCC[C@H]2C(=O)O[C@H]([C@H](C)C[C@@H]2CC[C@@H](O)[C@H](OC)C2)CC(=O)[C@H](C)/C=C(\C)[C@@H](O)[C@@H](OC)C(=O)[C@H](C)C[C@H](C)/C=C/C=C/C=C/1C
5. COc1cc2ncnc(Nc3ccc(Oc4ccccc4)cc3)c2cc1OC

(A)
1. 19
2. 85
3. 95
4. 101
5. 91
